assay: NCI Yeast Anticancer Drug Screen. Data for the mec2-1 strain (AID 157)
experimental_parameters: S. cerevisiae mec2-1 strain, at 50.0 µM, stronger effect = higher value
The panel holds about 79,000 compounds, 15% with a hit somewhere; the sample as a whole holds those more often.
Listed next: entries and their corresponding growth inhibition.
I only need the number, in %, no unit after it.

>>> obs_value("CC1CCC(CCBr)CC1 (stereo not given)")
-9.9
>>> obs_value("COc1ccc(-c2cc3cc(CCCOC4OC(COC5OCC(O)C(O)C5O)C(O)C(O)C4O)cc(OC)c3o2)cc1OC (stereo not given)")
17.4
>>> obs_value("Cc1cc(=O)[nH]c(NNC(=S)NC2CCCCC2)n1")
-41.8
>>> obs_value("COC(=O)CC(NC(=O)OCc1ccccc1)C(=O)NCC(=O)NCC(=O)O (stereo not given)")
12.7
>>> obs_value("O=C(Cc1ccc(Cl)cc1)NCCc1ccccc1")
-14.6
>>> obs_value("CCN(CC)CCNc1ncnc2c1cnn2C")
1.8

growth inhibition lookup needed for `CCOc1c(Cc2ccccc2)c(=O)n2c3ccccc3n3c(=O)n(C)c(=O)c1c23` , thanks.
-22.4

growth inhibition lookup needed for CN(C)C(=O)C(c1ccccc1)P(=O)(c1ccccc1)c1ccccc1 (stereo not given) , thanks.
-12.1

growth inhibition lookup needed for CC(=O)NC1C(OCc2ccccc2)OC(CO)C(O)C1OCC(=O)N1CCCC1C(=O)NC(CCC(=O)NCCCCCNc1c2ccccc2nc2cccc([N+](=O)[O-])c12)C(N)=O (stereo not given) , thanks.
57.6

growth inhibition lookup needed for COc1ccc2c(c1OC)C1NCCc3cc4c(cc3C1(OC)C2=O)OCO4 (stereo not given) , thanks.
2.35

====

assay: NCI Yeast Anticancer Drug Screen. Data for the rad50 strain (AID 155);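 also: 0% = growth of vehicle-only cultures of the same strain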
experimental_parameters: S. cerevisiae rad50 strain growth inhibition; at 50.0 µM; stronger effect = higher value
Compounds without any hit were thinned out: in the full panel of roughly 79,000, 15% have a hit. Active and inactive are the calls of the source. Cut-off read from the data, not from the text of the source: active = growth inhibition above about 70%; inactive = the rest.
measured_attribute: growth inhibition

Example compounds with recorded growth inhibition:
>>> obs_value("CC(=O)ON1CCC=NC1")
"19.7% (inactive)"
>>> obs_value("Cc1ccc(C(=O)NNC(=O)c2ccc3ccccc3c2)cc1")
"-15.4% (inactive)"
>>> obs_value("O=c1c2c(c(=O)c(=O)c1=O)Nc1ccccc1N2")
"22.2% (inactive)"
>>> obs_value("COc1ccc([N+](=O)[O-])c2c(C)cc(=O)[nH]c12")
"32.1% (inactive)"
>>> obs_value("CC(=O)OC(C)c1cc2c(s1)C(=O)c1sccc1C2=O (stereo not given)")
"88.6% (active)"

growth inhibition lookup needed for CC(CCl)CC#N (stereo not given) , thanks.
-5.6% (inactive)

growth inhibition lookup needed for `C1CCC(C(C2CCCCC2)C2CCCCC2)CC1` , thanks.
-16.9% (inactive)

growth inhibition lookup needed for CC1CCC2CCCCC2/C1=N\NC(N)=O (stereo not given) , thanks.
-10.8% (inactive)

growth inhibition lookup needed for `COC(=O)c1c(C)c(C)cc(C)c1C` , thanks.
-0.9% (inactive)

growth inhibition lookup needed for O=C(Nc1ccc(Cl)c(Cl)c1)OC1C=CS(=O)(=O)C1 (stereo not given) , thanks.
-7.9% (inactive)

growth inhibition lookup needed for Cc1cc(C)n(C2OC(CO)C(O)C(O)C2O)c(=S)c1C#N (stereo not given) , thanks.
21.1% (inactive)
